assay: Mouse PK study (i.v. and p.o.); assay type: in vivo; details: plasma, po, male CD1 mice, 5 mg/kg p.o. vs 1 mg/kg i.v.
endpointName: bioavailability (%)

• C[C@@]1(O)CC[C@H]2[C@H](CC[C@@H]3[C@@H]2CC[C@]2(C)[C@@H](C(=O)Cn4nnn(-c5ccn[nH]5)c4=O)CC[C@@H]32)C1 = 106
• C[C@@]1(O)CC[C@H]2[C@H](CC[C@@H]3[C@@H]2CC[C@]2(C)[C@@H](C(=O)Cn4nnn(-c5cccnc5)c4=O)CC[C@@H]32)C1 = 50.1
• Cn1nccc1-n1nnn(CC(=O)[C@H]2CC[C@H]3[C@@H]4CC[C@@H]5C[C@](C)(O)CC[C@@H]5[C@H]4CC[C@]23C)c1=O = 77.1

* * *

assay: Mouse PK study (i.v. and p.o.); assay type: in vivo; conditions: plasma, po, male CD1 mice, 5 mg/kg p.o., read-out: AUClast (hr*ng/mL) p.o.
Below, each entry is listed alongside its reported log10(AUC(0-t)).
endpointName: log10(AUC(0-t)) (log10 of the value in ng·h/mL)

* C[C@@]1(O)CC[C@H]2[C@H](CC[C@@H]3[C@@H]2CC[C@]2(C)[C@@H](C(=O)Cn4nnn(-c5ccc(F)cc5)c4=O)CC[C@@H]32)C1 | 3.51
* COc1cccc(-n2nnn(CC(=O)[C@H]3CC[C@H]4[C@@H]5CC[C@@H]6C[C@](C)(O)CC[C@@H]6[C@H]5CC[C@]34C)c2=O)c1 | 2.52
* C[C@@]1(O)CC[C@H]2[C@H](CC[C@@H]3[C@@H]2CC[C@]2(C)[C@@H](C(=O)Cn4nnn(-c5cccnc5)c4=O)CC[C@@H]32)C1 | 2.84
* Cn1nccc1-n1nnn(CC(=O)[C@H]2CC[C@H]3[C@@H]4CC[C@@H]5C[C@](C)(O)CC[C@@H]5[C@H]4CC[C@]23C)c1=O | 3.59
* COc1ccc(-n2nnn(CC(=O)[C@H]3CC[C@H]4[C@@H]5CC[C@@H]6C[C@](C)(O)CC[C@@H]6[C@H]5CC[C@]34C)c2=O)cc1 | 2.47
* CCn1nnn(CC(=O)[C@H]2CC[C@H]3[C@@H]4CC[C@@H]5C[C@](C)(O)CC[C@@H]5[C@H]4CC[C@]23C)c1=O | 3.12
* C[C@@]1(O)CC[C@H]2[C@H](CC[C@@H]3[C@@H]2CC[C@]2(C)[C@@H](C(=O)Cn4nnn(-c5ccccc5)c4=O)CC[C@@H]32)C1 | 3.74
* C[C@@]1(O)CC[C@H]2[C@H](CC[C@@H]3[C@@H]2CC[C@]2(C)[C@@H](C(=O)Cn4nnn(-c5ccn[nH]5)c4=O)CC[C@@H]32)C1 | 4.11
* C[C@@]1(O)CC[C@H]2[C@H](CC[C@@H]3[C@@H]2CC[C@]2(C)[C@@H](C(=O)Cn4nnn(-c5cn[nH]c5)c4=O)CC[C@@H]32)C1 | 3.93
* Cn1nnn(CC(=O)[C@H]2CC[C@H]3[C@@H]4CC[C@@H]5C[C@](C)(O)CC[C@@H]5[C@H]4CC[C@]23C)c1=O | 3.69
* C[C@@]1(O)CC[C@H]2[C@H](CC[C@@H]3[C@@H]2CC[C@]2(C)[C@@H](C(=O)Cn4nnn(-c5ccncc5)c4=O)CC[C@@H]32)C1 | 3.29
* Cn1ccc(-n2nnn(CC(=O)[C@H]3CC[C@H]4[C@@H]5CC[C@@H]6C[C@](C)(O)CC[C@@H]6[C@H]5CC[C@]34C)c2=O)n1 | 3.94
* C[C@@]1(O)CC[C@H]2[C@H](CC[C@@H]3[C@@H]2CC[C@]2(C)[C@@H](C(=O)Cn4nnn(-c5cocn5)c4=O)CC[C@@H]32)C1 | 3.96
* C[C@@]1(O)CC[C@H]2[C@H](CC[C@@H]3[C@@H]2CC[C@]2(C)[C@@H](C(=O)Cn4nnn(CC5CC5)c4=O)CC[C@@H]32)C1 | 2.51
* CC(C)(C)n1nnn(CC(=O)[C@H]2CC[C@H]3[C@@H]4CC[C@@H]5C[C@](C)(O)CC[C@@H]5[C@H]4CC[C@]23C)c1=O | 2.80
* C[C@@]1(O)CC[C@H]2[C@H](CC[C@@H]3[C@@H]2CC[C@]2(C)[C@@H](C(=O)Cn4nnn(-c5cccc(C#N)c5)c4=O)CC[C@@H]32)C1 | 3.05
* C[C@@]1(O)CC[C@H]2[C@H](CC[C@@H]3[C@@H]2CC[C@]2(C)[C@@H](C(=O)Cn4nnn(-c5ccc(C#N)cc5)c4=O)CC[C@@H]32)C1 | 3.76
* C[C@@]1(O)CC[C@H]2[C@H](CC[C@@H]3[C@@H]2CC[C@]2(C)[C@@H](C(=O)Cn4nnn(C5CCCC5)c4=O)CC[C@@H]32)C1 | 1.41

* * *

assay: Mouse PK study (i.v. and p.o.); assay type: in vivo; details: plasma, po, male CD1 mice, 5 mg/kg p.o.
endpointName: Cmax (ng/mL)

- CCn1nnn(CC(=O)[C@H]2CC[C@H]3[C@@H]4CC[C@@H]5C[C@](C)(O)CC[C@@H]5[C@H]4CC[C@]23C)c1=O: 973
- CC(C)(C)n1nnn(CC(=O)[C@H]2CC[C@H]3[C@@H]4CC[C@@H]5C[C@](C)(O)CC[C@@H]5[C@H]4CC[C@]23C)c1=O: 276
- C[C@@]1(O)CC[C@H]2[C@H](CC[C@@H]3[C@@H]2CC[C@]2(C)[C@@H](C(=O)Cn4nnn(-c5ccccc5)c4=O)CC[C@@H]32)C1: 491

* * *

Test: Mouse PK study (i.v. and p.o.)
Format: in vivo
Details: plasma, iv, male CD1 mice, 1 mg/kg i.v., read-out: Vss
Method: Test compounds were dosed to male CD1 mice at 5 mg/kg by oral gavage (p.o.) or 1 mg/kg by intravenous injection (i.v.). Blood samples were taken at 0.083, 0.25, 0.5, 1.0, 3.0, 6.0 and 24 hours post i.v. dosing and at 0.25, 0.5, 1.0, 3.0, 6.0 and 24 hours post p.o. dosing. The plasma concentration of compounds were determined by HPLC.
endpointName: Vd (L/kg)

• C[C@@]1(O)CC[C@H]2[C@H](CC[C@@H]3[C@@H]2CC[C@]2(C)[C@@H](C(=O)Cn4nnn(-c5cocn5)c4=O)CC[C@@H]32)C1 [Example 24] = 1.87
• C[C@@]1(O)CC[C@H]2[C@H](CC[C@@H]3[C@@H]2CC[C@]2(C)[C@@H](C(=O)Cn4nnn(-c5cccc(C#N)c5)c4=O)CC[C@@H]32)C1 [Example 14] = 1.92
• C[C@@]1(O)CC[C@H]2[C@H](CC[C@@H]3[C@@H]2CC[C@]2(C)[C@@H](C(=O)Cn4nnn(-c5ccc(F)cc5)c4=O)CC[C@@H]32)C1 [Example 11] = 2.42
• CC(C)n1nnn(CC(=O)[C@H]2CC[C@H]3[C@@H]4CC[C@@H]5C[C@](C)(O)CC[C@@H]5[C@H]4CC[C@]23C)c1=O [Example 4] = 0.88
• C[C@@]1(O)CC[C@H]2[C@H](CC[C@@H]3[C@@H]2CC[C@]2(C)[C@@H](C(=O)Cn4nnn(-c5ccccc5)c4=O)CC[C@@H]32)C1 [Example 10] = 2.16
• C[C@@]1(O)CC[C@H]2[C@H](CC[C@@H]3[C@@H]2CC[C@]2(C)[C@@H](C(=O)Cn4nnn(CC5CC5)c4=O)CC[C@@H]32)C1 [Example 7] = 1.69
• COc1cccc(-n2nnn(CC(=O)[C@H]3CC[C@H]4[C@@H]5CC[C@@H]6C[C@](C)(O)CC[C@@H]6[C@H]5CC[C@]34C)c2=O)c1 [Example 16] = 1.54
• C[C@@]1(O)CC[C@H]2[C@H](CC[C@@H]3[C@@H]2CC[C@]2(C)[C@@H](C(=O)Cn4nnn(C(F)(F)F)c4=O)CC[C@@H]32)C1 [Example 22] = 2.59
• CC(C)(C)n1nnn(CC(=O)[C@H]2CC[C@H]3[C@@H]4CC[C@@H]5C[C@](C)(O)CC[C@@H]5[C@H]4CC[C@]23C)c1=O [Example 5] = 8.3
• CCn1nnn(CC(=O)[C@H]2CC[C@H]3[C@@H]4CC[C@@H]5C[C@](C)(O)CC[C@@H]5[C@H]4CC[C@]23C)c1=O [Example 3] = 0.93
• Cn1nccc1-n1nnn(CC(=O)[C@H]2CC[C@H]3[C@@H]4CC[C@@H]5C[C@](C)(O)CC[C@@H]5[C@H]4CC[C@]23C)c1=O [Example 26] = 1.75
• C[C@@]1(O)CC[C@H]2[C@H](CC[C@@H]3[C@@H]2CC[C@]2(C)[C@@H](C(=O)Cn4nnn(C5CCCC5)c4=O)CC[C@@H]32)C1 [Example 8] = 2.38
• Cn1nnn(CC(=O)[C@H]2CC[C@H]3[C@@H]4CC[C@@H]5C[C@](C)(O)CC[C@@H]5[C@H]4CC[C@]23C)c1=O [Example 2] = 1.16
• C[C@@]1(O)CC[C@H]2[C@H](CC[C@@H]3[C@@H]2CC[C@]2(C)[C@@H](C(=O)Cn4nnn(-c5cccnc5)c4=O)CC[C@@H]32)C1 [Example 18] = 1.33
• Cn1ccc(-n2nnn(CC(=O)[C@H]3CC[C@H]4[C@@H]5CC[C@@H]6C[C@](C)(O)CC[C@@H]6[C@H]5CC[C@]34C)c2=O)n1 [Example 27] = 1.14
